Below: a set of entries, each annotated with reported GI50.
system: NCI-H460; test: NCI tumour cell line growth inhibition, 48 h
Activity calls are given as the source filed them. Rule as the data show it: active = GI50 up to about 1.1 µM and inactive = higher. Non-standard residues stand in square brackets, D forms with d. Residues, ends and D or L forms follow the SMILES beside them. *: point of attachment. Bn2Val = CC(C)[C@@H](C(=O)*)N(Cc1ccccc1)Cc1ccccc1; NH(4-Cl-benzyl) = Clc1ccc(CN*)cc1; NMeV = CN[C@H](C(=O)O)C(C)C; dNMeA = CN[C@H](C)C(=O)O

Example compounds with recorded GI50:
Exam item: Hi! What's the reported GI50 for CCOC(=O)NC(Nc1cc(Cl)ccc1OC)(C(F)(F)F)C(F)(F)F on NCI-H460?
Marked response: > 100 µM (inactive)

Exam item: Identify the measured GI50 of O=C(CO[N+](=O)[O-])OC/C=C/c1ccccc1 for NCI-H460.
Marked response: > 100 µM (inactive)

Continuing:
Exam item: API: value(readout=GI50, system=NCI-H460) for record CC(C)[C@H](NC(=O)[C@H](C(C)C)N(Cc1ccccc1)Cc1ccccc1)C(=O)N(C)[C@H](C(=O)N1CCC[C@H]1C(=O)N(C)[C@H](C)C(=O)NCc1ccc(Cl)cc1)C(C)C (Bn2Val-V[NMeV]P[dNMeA]-{NH(4-Cl-benzyl)})
Marked response: 3.96 µM (inactive)

Exam item: GET /values?readout=GI50&system=NCI-H460&item= NCCP(=O)(O)O
Marked response: > 100 µM (inactive)

Exam item: Write down the reported GI50 of N#CC(C#N)=c1[nH]c2cccc3c2-c2c(cccc2c3=C(C#N)C#N)[nH]1 , test system: NCI-H460.
Marked response: > 100 µM (inactive)

Exam item: // fetch NCI-H460 GI50 for CCOC(=O)c1oc2ccc([N+](=O)[O-])c3c2c1CCC3
Marked response: > 100 µM (inactive)

Exam item: Form entry - test system: NCI-H460; read-out: GI50; compound: CCCCCCCCCCCCCCCCOc1ccc(/C=C/C2=[N+](CCCl)CCO2)cc1
Marked response: 90.4 µM (inactive)

Exam item: Query GI50 on NCI-H460 for O=C1CC(n2ccnc2)c2c(Cl)sc(Cl)c21 (centres undefined)
Marked response: 26 µM (inactive)

Exam item: Kindly state the measured GI50 obtained for O=[N+]([O-])c1nc(-c2ccccn2)[nH]c1[N+](=O)[O-] with NCI-H460.
Marked response: 36.6 µM (inactive)

###

molecules and their reported GI50
tested on: HT-29; test: NCI tumour cell line growth inhibition, 48 h
Calls of active or inactive are those of the source. Rule as the data show it: active = GI50 up to about 1.1 µM and inactive = higher.

Would you please look over these solved cases?
Exam item: HT-29 / GI50 / COC(=O)c1ccccc1NC(=O)C(=O)Cc1nc2c3c(ccc2nc1O)C(=O)c1ccccc1C3=O : value?
Marked response: 35.9 µM (inactive)

Exam item: Lookup: GI50 / HT-29 / N/C(COc1ccc(Cl)cc1)=N\NC(=O)c1ccncc1
Marked response: > 100 µM (inactive)

Exam item: For the record NC(=O)C(=Cn1c(=S)[nH]c2ccc([N+](=O)[O-])cc21)C(N)=O , what value of GI50 is listed for HT-29?
Marked response: > 100 µM (inactive)

Continuing:
Exam item: Write down the reported GI50 of CC(=O)NC(C=O)C(O[C@H](C)C(=O)NC(C)C(=O)NC(CCC(N)=O)C(=O)OCc1ccccc1)C(O)C(O)COC(=O)CCNc1c2ccccc2nc2cccc([N+](=O)[O-])c12 (some centres undefined) , test system: HT-29.
Marked response: 2.14 µM (inactive)

Exam item: HT-29 / GI50 / CN(C)c1ccc(/C=C/C=C\c2cc(/C=C/C=C/c3ccc(N(C)C)cc3)[s+]c3ccccc23)cc1.[O-][Cl+3]([O-])([O-])[O-] : value?
Marked response: > 100 µM (inactive)

Exam item: # get_value(readout= GI50, system= HT-29) for Cc1cc(S(=O)(=O)Nc2nc(N)nc(N3N=CCC3C)n2)c(SCC(=O)O)cc1Cl (centres undefined)
Marked response: > 10 µM (inactive)

Exam item: What GI50 appears in the records for this molecule with HT-29? COC(=O)c1c(C)nc(C)c(N=O)c1-c1ccccc1C(F)(F)F
Marked response: 15.7 µM (inactive)

Exam item: Any idea what GI50 came out for COC(=O)C(Cc1nc2ccccc2nc1O)C(NO)C(=O)Nc1c(Cl)cc([N+](=O)[O-])cc1Cl (centres undefined) on HT-29?
Marked response: 35.2 µM (inactive)

Source of measurements: ChEMBL document CHEMBL1201862
